System: S. aureus/giorigio
experimentalProtocol: MIC against standard strain by two-fold agar dilution, S. aureus/giorigio
Assay type: cell-based
measurementContext: Staphylococcus aureus; S. aureus/giorigio; Muller-Hinton agar, 37° C., 20 hours; read-out: MIC
List of MIC values.
propertyMeasured: MIC (µg/mL)

>>> quantitativeresult("Nc1nc(/C(=N/OC2(C(=O)O)CCCC2)C(=O)NC2C(=O)N3C(C(=O)[O-])=C(CSc4nc(N)c5c([n+]4N)CCC5)CSC23)cs1 (stereo not drawn)")
1
>>> quantitativeresult("C[C@H](O/N=C(\\C(=O)NC1C(=O)N2C(C(=O)[O-])=C(CSc3nc(N)c4c([n+]3C)CCC4)CSC12)c1csc(N)n1)C(=O)O (stereo partly drawn) [I-6(S)]")
2
>>> quantitativeresult("Nc1nc(/C(=N/OCC(=O)O)C(=O)NC2C(=O)N3C(C(=O)[O-])=C(CSc4nc(N)c5c([n+]4N)CCC5)CSC23)cs1 (stereo not drawn)")
2

====

Test system: A. calcoaceticus /15473A
experimentalProtocol: MIC against standard strain by two-fold agar dilution, A. calcoaceticus /15473A
Type: cell-based
measurementContext: Acinetobacter calcoaceticus; A. calcoaceticus /15473A; Muller-Hinton agar, 37° C., 20 hours; read-out: MIC
propertyMeasured: MIC (µg/mL)

>>> quantitativeresult("C[n+]1c(SCC2=C(C(=O)[O-])N3C(=O)C(NC(=O)/C(=N\\OC(C)(C)C(=O)O)c4csc(N)n4)C3SC2)nc(N)c2c1CCC2 (centres unmarked)")
1
>>> quantitativeresult("CO/N=C(\\C(=O)NC1C(=O)N2C(C(=O)[O-])=C(CSc3nc(N)c4c([n+]3N)CCC4)CSC12)c1csc(N)n1 (centres unmarked)")
4
>>> quantitativeresult("Nc1nc(/C(=N/OCC(=O)O)C(=O)NC2C(=O)N3C(C(=O)[O-])=C(CSc4nc(N)c5c([n+]4N)CCC5)CSC23)cs1 (centres unmarked)")
4
>>> quantitativeresult("CC(C)(O/N=C(\\C(=O)NC1C(=O)N2C(C(=O)[O-])=C(CSc3nc(N)c4c([n+]3N)CCC4)CSC12)c1csc(N)n1)C(=O)O (centres unmarked)")
2
>>> quantitativeresult("C[C@H](O/N=C(\\C(=O)NC1C(=O)N2C(C(=O)[O-])=C(CSc3nc(N)c4c([n+]3N)CCC4)CSC12)c1csc(N)n1)C(=O)O (stereo partly drawn) [I-5(S)]")
2

====

List of MIC values.
Test system: E. cloacae/1194E
experimentalProtocol: MIC against standard strain by two-fold agar dilution, E. cloacae/1194E
Assay type: cell-based
measurementContext: Enterobacter cloacae; E. cloacae/1194E; Muller-Hinton agar, 37° C., 20 hours; read-out: MIC
propertyMeasured: MIC (µg/mL)

>>> quantitativeresult("CO/N=C(\\C(=O)NC1C(=O)N2C(C(=O)[O-])=C(CSc3nc(N)c4c([n+]3N)CCC4)CSC12)c1csc(N)n1 (centres unmarked)")
16
>>> quantitativeresult("C[n+]1c(SCC2=C(C(=O)[O-])N3C(=O)C(NC(=O)/C(=N\\OC4(C(=O)O)CCCC4)c4csc(N)n4)C3SC2)nc(N)c2c1CCC2 (centres unmarked)")
8
>>> quantitativeresult("Nc1nc(/C(=N/OC2(C(=O)O)CCCC2)C(=O)NC2C(=O)N3C(C(=O)[O-])=C(CSc4nc(N)c5c([n+]4N)CCC5)CSC23)cs1 (centres unmarked)")
4
>>> quantitativeresult("C[n+]1c(SCC2=C(C(=O)[O-])N3C(=O)C(NC(=O)/C(=N\\OC(C)(C)C(=O)O)c4csc(N)n4)C3SC2)nc(N)c2c1CCC2 (centres unmarked)")
4
>>> quantitativeresult("CC(C)(O/N=C(\\C(=O)NC1C(=O)N2C(C(=O)[O-])=C(CSc3nc(N)c4c([n+]3N)CCC4)CSC12)c1csc(N)n1)C(=O)O (centres unmarked)")
4
>>> quantitativeresult("C[C@H](O/N=C(\\C(=O)NC1C(=O)N2C(C(=O)[O-])=C(CSc3nc(N)c4c([n+]3N)CCC4)CSC12)c1csc(N)n1)C(=O)O (stereo partly drawn) [I-5(S)]")
8
>>> quantitativeresult("Nc1nc(/C(=N/OCC(=O)O)C(=O)NC2C(=O)N3C(C(=O)[O-])=C(CSc4nc(N)c5c([n+]4N)CCC5)CSC23)cs1 (centres unmarked)")
8
>>> quantitativeresult("C[C@H](O/N=C(\\C(=O)NC1C(=O)N2C(C(=O)[O-])=C(CSc3nc(N)c4c([n+]3C)CCC4)CSC12)c1csc(N)n1)C(=O)O (stereo partly drawn) [I-6(S)]")
4
